Assay: Half life in Fischer 344 rat at 3 mg/kg, iv
Format: ADME, organism-based
Parameters: dose 3 mg/kg, route intravenous
Settings: in vivo

# substance.smiles, half-life [h]
rows = [
    ("CCN(CC)c1ccc(OC)c2nc(-c3c(OC)cc(COC)cc3OC)c(C)cc12", 1.73),
]

* * *

Assay: Oral bioavailability in Fischer 344 rat at 10 mg/kg
Assay type: ADME, organism-based
Conditions: in vivo

# substance.smiles, bioavailability [%]
data = [
    ("CCN(CC)c1ccc(OC)c2nc(-c3c(OC)cc(COC)cc3OC)c(C)cc12", 16.4),
]

* * *

Molecular target: Corticotropin-releasing factor receptor 1 (Homo sapiens)
Sequence (P34998 whole entry): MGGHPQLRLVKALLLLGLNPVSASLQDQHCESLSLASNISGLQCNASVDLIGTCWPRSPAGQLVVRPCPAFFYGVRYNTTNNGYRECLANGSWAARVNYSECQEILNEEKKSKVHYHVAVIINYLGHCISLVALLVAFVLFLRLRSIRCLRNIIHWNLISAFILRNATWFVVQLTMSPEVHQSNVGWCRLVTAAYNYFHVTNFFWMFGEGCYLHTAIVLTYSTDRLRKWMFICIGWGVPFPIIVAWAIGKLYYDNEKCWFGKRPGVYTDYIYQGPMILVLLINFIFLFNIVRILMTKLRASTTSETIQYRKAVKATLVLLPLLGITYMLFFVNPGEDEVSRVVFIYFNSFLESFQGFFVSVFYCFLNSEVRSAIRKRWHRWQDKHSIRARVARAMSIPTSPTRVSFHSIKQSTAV
Test: Displacement of [125I]-CRF from human CRF1 receptor expressed in HEK293 cells after 2 hrs by scintillation counting
Format: cell-based
IC50 values for the compounds below.

# substance.smiles, IC50
measured = [
    ("CCN(CCOC)c1ccc(OC)c2nc(-c3c(OC)cc(COC)cc3OC)c(C)cc12", "0.392 µM"),
    ("CCN(CC)c1ccc(OC)c2nc(-c3c(OC)cc(COC)cc3OC)c(C)cc12", "0.11 µM"),
    ("CCN(CC)c1ccc(C(F)F)c2nc(-c3c(OC)cc(COC)cc3OC)c(C)cc12", "0.414 µM"),
    ("CCN(CC)c1ccc(OC)c2nc(-c3c(OC)cc(C#N)cc3OC)c(C)cc12", "0.132 µM"),
    ("CCN(CC)c1ccc(C(F)(F)F)c2nc(-c3c(OC)cc(COC)cc3OC)c(C)cc12", "0.288 µM"),
]
